TARGET OR SYSTEM: HER2 (Homo sapiens (Human))
EXPERIMENT DESCRIPTION: BT474 cellular assay (HER2 inhibition), phospho-HER2 ELISA
MEASUREMENT PARAMETERS: inhibition of phosphor HER2, BT474 cells, 2 hours compound incubation
Give pIC50 for every item shown.
# pIC50 is unitless: minus log10 of the molar concentration; print number only

[in] Would you kindly share the measured pIC50 for "[2H]C([2H])([2H])Oc1ccc2ncnc(Nc3ccc(Oc4cc5ncnn5cn4)c(C)c3)c2c1O[C@H]1CCN(C)CC1(F)F" ?
[out] 7.92

[in] Would you kindly share the measured pIC50 for "C=CC(=O)N1CC=C(c2ccc3ncnc(Nc4ccc(Oc5cc6ncnn6cn5)c(C)c4)c3c2O[C@@H]2CCN(C)CC2(F)F)CC1" ?
[out] 6.65

[in] Would you kindly share the measured pIC50 for "COc1ccc2ncnc(Nc3ccc(Oc4cc5ncnn5cn4)c(C)c3)c2c1N1CC(N(C)C)C1" ?
[out] 8.04

[in] Would you kindly share the measured pIC50 for COc1ccc2ncnc(Nc3ccc(Oc4cc5ncnn5cn4)c(C)c3)c2c1N1CC2C1CCN2CC(F)F (stereo not shown) ?
[out] 8.19

---

Give pIC50 for every item shown.
TARGET OR SYSTEM: HER2 (Homo sapiens (Human), UniProt P04626)
Sequence (P04626 23-1255): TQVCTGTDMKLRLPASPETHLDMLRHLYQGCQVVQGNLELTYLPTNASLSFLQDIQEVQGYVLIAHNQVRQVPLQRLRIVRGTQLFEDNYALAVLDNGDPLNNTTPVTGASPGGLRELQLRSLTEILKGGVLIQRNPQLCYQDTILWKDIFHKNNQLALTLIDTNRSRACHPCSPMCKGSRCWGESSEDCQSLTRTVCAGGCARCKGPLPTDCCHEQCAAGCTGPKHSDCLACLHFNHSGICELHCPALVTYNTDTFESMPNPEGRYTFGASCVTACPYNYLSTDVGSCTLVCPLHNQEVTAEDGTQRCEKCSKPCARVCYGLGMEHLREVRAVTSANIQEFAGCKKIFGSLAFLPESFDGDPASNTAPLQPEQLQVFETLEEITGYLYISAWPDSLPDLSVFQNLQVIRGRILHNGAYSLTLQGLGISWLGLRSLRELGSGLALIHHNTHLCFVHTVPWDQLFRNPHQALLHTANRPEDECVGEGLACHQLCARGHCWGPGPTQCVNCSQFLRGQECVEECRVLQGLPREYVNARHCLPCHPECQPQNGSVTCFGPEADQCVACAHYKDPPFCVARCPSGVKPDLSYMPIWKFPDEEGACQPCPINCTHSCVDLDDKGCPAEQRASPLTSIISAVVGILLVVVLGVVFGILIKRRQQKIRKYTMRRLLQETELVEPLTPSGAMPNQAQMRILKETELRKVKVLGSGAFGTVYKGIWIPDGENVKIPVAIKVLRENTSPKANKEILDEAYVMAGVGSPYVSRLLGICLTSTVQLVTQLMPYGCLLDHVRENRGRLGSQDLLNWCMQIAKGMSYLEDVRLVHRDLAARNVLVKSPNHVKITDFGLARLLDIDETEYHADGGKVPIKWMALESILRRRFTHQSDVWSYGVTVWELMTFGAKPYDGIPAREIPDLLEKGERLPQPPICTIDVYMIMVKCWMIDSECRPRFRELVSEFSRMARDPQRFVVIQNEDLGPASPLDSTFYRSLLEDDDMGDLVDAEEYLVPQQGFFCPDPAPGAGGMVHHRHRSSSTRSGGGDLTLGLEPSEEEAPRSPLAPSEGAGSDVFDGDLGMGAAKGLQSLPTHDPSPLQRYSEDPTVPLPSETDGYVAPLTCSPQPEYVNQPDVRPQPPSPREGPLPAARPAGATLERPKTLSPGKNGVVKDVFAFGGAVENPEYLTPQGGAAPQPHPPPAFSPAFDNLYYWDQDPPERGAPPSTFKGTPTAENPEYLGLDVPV
EXPERIMENT DESCRIPTION: BT474 cellular assay (HER2 inhibition), phospho-HER2 ELISA
MEASUREMENT PARAMETERS: inhibition of phosphor HER2, BT474 cells, 2 hours compound incubation
# pIC50 is unitless: minus log10 of the molar concentration; print number only

[in] Would you kindly share the measured pIC50 for Cc1cc(Nc2ncnc3ccc(NC(=O)/C=C/[C@H]4CCCN4C)c(O[C@@H]4CCN(C)CC4(F)F)c23)ccc1Oc1cc2ncnn2cn1 [Example 95] ?
[out] 7.32

[in] Would you kindly share the measured pIC50 for CCOc1ccc2ncnc(Nc3ccc(Oc4cc5ncnn5cn4)c(C)c3)c2c1N1CC(N(C)C)C1 [Example 11] ?
[out] 7.89

[in] Would you kindly share the measured pIC50 for COc1ccc2ncnc(Nc3ccc(Oc4cc5ncnn5cn4)c(C)c3)c2c1N1CC[C@@H](N(C)C)C1 [Example 2] ?
[out] 7.57

[in] Would you kindly share the measured pIC50 for COc1ccc2ncnc(Nc3ccc(Oc4cc5ncnn5cn4)c(C)c3)c2c1N1CCOCC1 [Example 4] ?
[out] 6.98

[in] Would you kindly share the measured pIC50 for Cc1cc(Nc2ncnc3ccc(OCCF)c(N4CC(N(C)C)C4)c23)ccc1Oc1cc2ncnn2cn1 [Example 12] ?
[out] 7.59

[in] Would you kindly share the measured pIC50 for COc1ccc2ncnc(Nc3ccc(Oc4cc5ncnn5cn4)c(C)c3)c2c1N1CC2(COCCN2C)C1 [Example 41] ?
[out] 7.46

[in] Would you kindly share the measured pIC50 for Cc1cc(Nc2ncnc3ccc(OC(F)(F)F)c(O[C@@H]4CCN(C)CC4(F)F)c23)ccc1Oc1cc2ncnn2cn1 [Example 72] ?
[out] 7.29

[in] Would you kindly share the measured pIC50 for COc1ccc2ncnc(Nc3ccc(Oc4cc5ncnn5cn4)c(C)c3)c2c1N1CC2(CN(C)CCO2)C1 [Example 38] ?
[out] 7.43

---

Give IC50 for every item shown.
TARGET OR SYSTEM: UniProt:P00533
Sequence (P00533 25-1210): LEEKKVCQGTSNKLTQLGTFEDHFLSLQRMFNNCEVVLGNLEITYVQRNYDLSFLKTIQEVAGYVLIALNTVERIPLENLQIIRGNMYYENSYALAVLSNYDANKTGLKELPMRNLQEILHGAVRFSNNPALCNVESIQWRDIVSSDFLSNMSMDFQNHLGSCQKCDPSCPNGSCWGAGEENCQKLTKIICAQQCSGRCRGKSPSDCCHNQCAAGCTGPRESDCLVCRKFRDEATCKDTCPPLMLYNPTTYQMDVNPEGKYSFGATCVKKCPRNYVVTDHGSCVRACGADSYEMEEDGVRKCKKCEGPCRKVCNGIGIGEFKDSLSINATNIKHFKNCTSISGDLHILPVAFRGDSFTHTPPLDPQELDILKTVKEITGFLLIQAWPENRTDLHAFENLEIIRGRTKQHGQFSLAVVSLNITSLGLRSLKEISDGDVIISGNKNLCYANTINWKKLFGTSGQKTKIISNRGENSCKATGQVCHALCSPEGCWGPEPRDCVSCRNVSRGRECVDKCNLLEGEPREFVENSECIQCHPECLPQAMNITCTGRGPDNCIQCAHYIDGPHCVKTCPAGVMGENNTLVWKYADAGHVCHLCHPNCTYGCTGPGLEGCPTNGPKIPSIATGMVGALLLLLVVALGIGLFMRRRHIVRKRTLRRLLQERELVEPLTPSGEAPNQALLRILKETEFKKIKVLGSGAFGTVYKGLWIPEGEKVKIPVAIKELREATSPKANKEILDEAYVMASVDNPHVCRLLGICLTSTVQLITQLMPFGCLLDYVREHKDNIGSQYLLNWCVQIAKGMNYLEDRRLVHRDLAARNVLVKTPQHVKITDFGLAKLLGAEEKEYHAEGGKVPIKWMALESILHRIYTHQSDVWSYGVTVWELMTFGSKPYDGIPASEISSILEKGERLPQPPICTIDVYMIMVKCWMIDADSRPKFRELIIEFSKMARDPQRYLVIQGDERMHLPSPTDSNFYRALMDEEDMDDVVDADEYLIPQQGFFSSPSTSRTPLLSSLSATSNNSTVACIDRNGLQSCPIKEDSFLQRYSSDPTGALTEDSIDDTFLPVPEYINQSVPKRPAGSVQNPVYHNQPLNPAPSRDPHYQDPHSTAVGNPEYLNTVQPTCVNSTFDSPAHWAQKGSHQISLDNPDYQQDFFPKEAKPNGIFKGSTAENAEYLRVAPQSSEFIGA
EXPERIMENT DESCRIPTION: NCI H838 cellular assay (wt-EGFR inhibition), phospho-EGFR ELISA
Format: cell-based
MEASUREMENT PARAMETERS: inhibition of phosphor wt-EGFR, NCI H838 cells, EGF 100 ng/ml

[in] Would you kindly share the measured IC50 for "Cc1cc(Nc2ncnc3cccc(N4CC5(CN(C)CCO5)C4)c23)ccc1Oc1cc2ncnn2cn1" ?
[out] > 10 µM

[in] Would you kindly share the measured IC50 for "COc1ccc2ncnc(Nc3ccc(Oc4cc5ncnn5cn4)c(C)c3)c2c1N1C[C@@H](F)[C@H](N(C)C)C1" ?
[out] > 10 µM

[in] Would you kindly share the measured IC50 for "COc1ccc2ncnc(Nc3ccc(Oc4cc5ncnn5cn4)c(C)c3)c2c1N1CCOCC1" ?
[out] > 10 µM

[in] Would you kindly share the measured IC50 for COc1ccc2ncnc(Nc3ccc(Oc4cc5ncnn5cn4)c(C)c3)c2c1N1CC2OCCN(C)C2C1 (stereo not shown) ?
[out] > 10 µM
